// protein stability index lookup, one value per entry
B1: TRIM14 (parent)
chain: YARTPTLDPDTMHARLRLSADRLT

- Variants of: B1
- EXPERIMENT NOTES: protein stability index of a GFP-peptide fusion (GPS, HEK-293T) (PSI 1-6); higher = more stable;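 further: lentivirally expressed fusions sorted by FACS into six bins by GFP to DsRed ratio, PSI derived from sequencing read proportions per bin multiplied by bin number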
- SETUP CONDITIONS: c terminus: a fixed tail appended
Answer as a number with no unit attached.

Use these answered entries as a reference point.
YARTPTLDPDTMHARLRLSANRLT [D21N] = 2.54
YARTPVLDPDTMHARLRLSADRLT [T6V] = 2.22
YAGTPTLDPDTMHARLRLSADRLT [R3G] = 2.78
YTRTPTLDPDTMHARLRLSADRLT [A2T] = 2.46
YYRTPTLDPDTMHARLRLSADRLT [A2Y] = 2.9

The recorded protein stability index for YARTPWLDPDTMHARLRLSADRLT [T6W] is 2.79

The recorded protein stability index for YARTPTLDPDTMHWRLRLSADRLT [A14W] is 2.7

The recorded protein stability index for YARMPTLDPDTMHARLRLSADRLT [T4M] is 2.45

The recorded protein stability index for YARLPTLDPDTMHARLRLSADRLT [T4L] is 2.16

The recorded protein stability index for YARTPTLVPDTMHARLRLSADRLT [D8V] is 2.78
